- target_entity: CK1ε wild type enzyme (Homo sapiens, UniProt P49674)
- Sequence (P49674 whole entry): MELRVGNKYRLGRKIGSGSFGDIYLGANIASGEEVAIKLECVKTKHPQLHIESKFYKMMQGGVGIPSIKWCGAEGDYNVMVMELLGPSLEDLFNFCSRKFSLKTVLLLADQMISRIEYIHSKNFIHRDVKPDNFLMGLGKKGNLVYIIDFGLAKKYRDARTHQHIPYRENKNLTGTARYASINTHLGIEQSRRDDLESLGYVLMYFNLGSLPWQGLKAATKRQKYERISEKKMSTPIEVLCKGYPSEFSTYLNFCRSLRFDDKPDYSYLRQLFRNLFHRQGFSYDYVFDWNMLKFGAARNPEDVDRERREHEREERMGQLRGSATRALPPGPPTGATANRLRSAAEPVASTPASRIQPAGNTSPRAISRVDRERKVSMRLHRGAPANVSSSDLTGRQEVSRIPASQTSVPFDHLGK
- experimental_details: CK1ε kinase assay (Kinase-Glo luminescence)
- Assay type: biochemical
- conditions: ATP 10 μM, CK1ε wild type enzyme 2.5 nM, peptide substrate 42 μM, 25° C., 70 minutes; values marked * are geometric mean of 5-16 determinations; read-out: CKIε IC50 (nM), geometric mean of 2-4 determinations
Counter-ions that a name gives are not always drawn.

compound: c1ccc(-c2ncn(C3CCN(Cc4ccon4)CC3)c2-c2ccncn2)cc1
IC50: 327 nM

compound: Cc1cc(CN2CCC(n3cnc(-c4ccc(F)cc4)c3-c3ccncn3)CC2)no1
IC50: 268 nM

compound: Nc1nccc(-c2c(-c3ccc(F)cc3)ncn2C2CN(Cc3ncccn3)C2)n1
IC50: 536 nM

compound: CCc1csc(CN2CCC(n3cnc(-c4ccc(F)cc4)c3-c3ccnc(N)n3)CC2)n1 [Example 24, trifluoroacetate salt]
IC50: 382 nM

compound: C[C@H](c1ccon1)N1CCC(n2cnc(-c3ccc(F)cc3)c2-c2ccncn2)CC1 (single isomer, unassigned)
IC50: 1360 nM

compound: Cc1ncc(CN2CCC(n3cnc(-c4ccc(F)cc4)c3-c3ccnc(N)n3)CC2)cn1 [Example 27, trifluoroacetate salt]
IC50: 83.2 nM

compound: Cc1cnc(CN2CCC(n3cnc(-c4ccc(F)cc4)c3-c3ccnc(N)n3)C2)c(F)c1 (stereo not shown)
IC50: 165 nM

---

In this section we review reported IC50 values for a set of compounds.
- target_entity: CK1ε wild type enzyme (Homo sapiens, UniProt P49674)
- experimental_details: CK1ε kinase assay (Kinase-Glo luminescence)
- Assay type: biochemical
- conditions: ATP 10 μM, CK1ε wild type enzyme 2.5 nM, peptide substrate 42 μM, 25° C., 70 minutes; values marked * are geometric mean of 5-16 determinations; read-out: CKIε IC50 (nM), geometric mean of 2-4 determinations
Where a name gives a salt, the structure may show the parent alone.

compound: Cc1cccc(CN2CCC(n3cnc(-c4ccc(F)cc4)c3-c3ccnc(N)n3)C2)n1 (stereo not drawn)
IC50 / nM: 266

compound: Fc1ccc(-c2ncn(C3CCN(Cc4ccon4)C3)c2-c2ccncn2)cc1 (stereo not drawn)
IC50 / nM: 617

compound: Cc1cc(CN2CCC(n3cnc(-c4ccc(F)cc4)c3-c3ccnc(N)n3)C2)no1 (stereo not drawn)
IC50 / nM: 140

compound: CNc1nccc(-c2c(-c3ccc(F)cc3)ncn2C2CCN(C(C)c3ccon3)CC2)n1 (stereo not drawn)
IC50 / nM: 67.4

compound: Fc1ccc(-c2ncn(C3CCN(Cc4cnc5ccnn5c4)C3)c2-c2ccncn2)cc1 (stereo not drawn) [Example 40, trifluoroacetate salt]
IC50 / nM: 798

compound: Cc1c(CN2CCC(n3cnc(-c4ccc(F)cc4)c3-c3ccncn3)C2)nc2ccccn12 (stereo not drawn) [Example 41, trifluoroacetate salt]
IC50 / nM: 1990

compound: Cn1nccc1CN1CCC(n2cnc(-c3ccc(F)cc3)c2-c2ccnc(N)n2)CC1 [Example 20, trifluoroacetate salt]
IC50 / nM: 244

compound: Nc1nccc(-c2c(-c3ccc(F)cc3)ncn2C2CCN(Cc3ccc(C(F)(F)F)nc3)CC2)n1 [Example 18, trifluoroacetate salt]
IC50 / nM: 394

compound: Cc1nc(-c2ccc(F)cc2)c(-c2ccncn2)n1C1CCN(Cc2ccon2)CC1
IC50 / nM: 829

compound: Nc1nccc(-c2c(-c3ccc(F)cc3)ncn2C2CCN(Cc3ccnc4cccnc34)C2)n1 (stereo not drawn)
IC50 / nM: 158

compound: Nc1nccc(-c2c(-c3ccc(F)cc3)ncn2C2CCN(Cc3ccnc(C4CC4)n3)CC2)n1 [Example 28, trifluoroacetate salt]
IC50 / nM: 351

compound: C[C@@H](c1ccon1)N1CCC(n2cnc(-c3ccc(F)cc3)c2-c2ccncn2)CC1 (single isomer, unassigned)
IC50 / nM: 277

compound: Nc1nccc(-c2c(-c3ccc(F)cc3)ncn2C2CCN(Cc3cncc4ccccc34)C2)n1 (stereo not drawn)
IC50 / nM: 140

compound: COc1ncccc1CN1CCC(n2cnc(-c3ccc(F)cc3)c2-c2ccnc(N)n2)CC1 [Example 26, trifluoroacetate salt]
IC50 / nM: 238

compound: Cc1cc(C)c(CN2CCC(n3cnc(-c4ccc(F)cc4)c3-c3ccnc(N)n3)C2)cn1 (stereo not drawn)
IC50 / nM: 124

compound: Fc1ccc(-c2ncn(C3CCN(Cc4cn5ccccc5n4)C3)c2-c2ccncn2)cc1 (stereo not drawn) [Example 39, trifluoroacetate salt]
IC50 / nM: 644

compound: Cc1cc(CN2CCC(n3cnc(-c4ccc(F)cc4)c3-c3ccnc(N)n3)CC2)ccn1 [Example 21, trifluoroacetate salt]
IC50 / nM: 59.8

compound: Nc1nccc(-c2c(-c3ccc(F)cc3)ncn2C2CCN(Cc3ncccn3)CC2)n1
IC50 / nM: 116

compound: Nc1nccc(-c2c(-c3ccc(F)cc3)ncn2C2CCN(Cc3ccnnc3)CC2)n1 [Example 23, trifluoroacetate salt]
IC50 / nM: 34.8

compound: Nc1nccc(-c2c(-c3ccc(F)cc3)ncn2C2CCN(Cc3cncs3)CC2)n1 [Example 19, trifluoroacetate salt]
IC50 / nM: 99.9

compound: Nc1nccc(-c2c(-c3ccc(F)cc3)ncn2C2CCN(Cc3ccncc3)C2)n1 (stereo not drawn)
IC50 / nM: 211

compound: Cc1nc2ccccc2nc1CN1CCC(n2cnc(-c3ccc(F)cc3)c2-c2ccnc(N)n2)CC1 [Example 17, trifluoroacetate salt]
IC50 / nM: 144

compound: COc1ccc(CN2CCC(n3cnc(-c4ccc(F)cc4)c3-c3ccnc(N)n3)CC2)cn1 [Example 22, trifluoroacetate salt]
IC50 / nM: 482

compound: COc1cc(CN2CCC(n3cnc(-c4ccc(F)cc4)c3-c3ccnc(N)n3)CC2)ccn1 [Example 25, trifluoroacetate salt]
IC50 / nM: 393

compound: COCCc1ncc(CN2CCC(n3cnc(-c4ccc(F)cc4)c3-c3ccncn3)C2)cn1 (stereo not drawn) [Example 42, trifluoroacetate salt]
IC50 / nM: 1530

compound: Fc1ccc(-c2ncn(C3CCN(Cc4ccon4)CC3)c2-c2ccncn2)cc1 [Example 6, hydrochloride salt]
IC50 / nM: 126

compound: CNc1nccc(-c2c(-c3ccccc3)ncn2C2CCN(Cc3ncccn3)CC2)n1
IC50 / nM: 660

---

- target_entity: CK1δ (Homo sapiens, UniProt P48730)
- Sequence (P48730 whole entry): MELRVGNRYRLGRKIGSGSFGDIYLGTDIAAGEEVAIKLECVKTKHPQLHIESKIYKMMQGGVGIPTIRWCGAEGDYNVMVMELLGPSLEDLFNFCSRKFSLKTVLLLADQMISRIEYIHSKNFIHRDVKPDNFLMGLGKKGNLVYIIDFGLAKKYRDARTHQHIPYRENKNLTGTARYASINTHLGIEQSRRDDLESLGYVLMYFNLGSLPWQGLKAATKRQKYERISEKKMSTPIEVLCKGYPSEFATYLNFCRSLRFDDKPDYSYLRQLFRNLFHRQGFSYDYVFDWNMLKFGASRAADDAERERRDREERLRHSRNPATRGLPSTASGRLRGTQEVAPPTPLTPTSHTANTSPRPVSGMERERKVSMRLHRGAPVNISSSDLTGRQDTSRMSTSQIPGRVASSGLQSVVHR
- experimental_details: CK1δ kinase assay (Kinase-Glo luminescence)
- Format: biochemical
- conditions: ATP 10 μM, CK1δ enzyme 2 nM, peptide substrate 42 μM, 25° C., 85 minutes; values marked * are geometric mean of 5-16 determinations; read-out: CKIδ IC50 (nM), geometric mean of 2-4 determinations
Where a name gives a salt, the structure may show the parent alone.
Catalogue of IC50 readings, one per entry.
value_type: IC50 (nM)

compound: Nc1nccc(-c2c(-c3ccc(F)cc3)ncn2C2CCN(Cc3ccon3)CC2)n1
target_entity: CK1δ (Homo sapiens, UniProt P48730)
units_of_measure: nM
value_qualifier: <
observed_value: 4.17
//
compound: Nc1nccc(-c2c(-c3ccc(F)cc3)ncn2C2CCN(Cc3ncccn3)CC2)n1
target_entity: CK1δ (Homo sapiens, UniProt P48730)
units_of_measure: nM
value_qualifier: =
observed_value: 27.8
//
compound: Nc1nccc(-c2c(-c3ccc(F)cc3)ncn2C2CCN(Cc3ccon3)C2)n1 (centres unmarked)
target_entity: CK1δ (Homo sapiens, UniProt P48730)
units_of_measure: nM
value_qualifier: =
observed_value: 67.8
//
compound: Cc1nc(-c2ccc(F)cc2)c(-c2ccncn2)n1C1CCN(Cc2ccon2)CC1
target_entity: CK1δ (Homo sapiens, UniProt P48730)
units_of_measure: nM
value_qualifier: =
observed_value: 140
//
compound: COc1ncccc1CN1CCC(n2cnc(-c3ccc(F)cc3)c2-c2ccnc(N)n2)CC1 [Example 26, trifluoroacetate salt]
target_entity: CK1δ (Homo sapiens, UniProt P48730)
units_of_measure: nM
value_qualifier: =
observed_value: 51.9

---

- target_entity: UniProt:P48730
- experimental_details: CK1δ kinase assay (Kinase-Glo luminescence)
- Assay type: biochemical
- conditions: ATP 10 μM, CK1δ enzyme 2 nM, peptide substrate 42 μM, 25° C., 85 minutes; values marked * are geometric mean of 5-16 determinations; read-out: CKIδ IC50 (nM), geometric mean of 2-4 determinations
Where a name gives a salt, the structure may show the parent alone.
value_type: IC50 (nM)

molecule: Cc1cc(CN2CCC(n3cnc(-c4ccc(F)cc4)c3-c3ccnc(N)n3)C2)no1 (stereo not drawn) [Example 33]
observed_value: 55.1
//
molecule: Cc1cc(C)c(CN2CCC(n3cnc(-c4ccc(F)cc4)c3-c3ccnc(N)n3)C2)cn1 (stereo not drawn) [Example 37]
observed_value: 46.6
//
molecule: Cc1nc2ccccc2nc1CN1CCC(n2cnc(-c3ccc(F)cc3)c2-c2ccnc(N)n2)CC1 [Example 17, trifluoroacetate salt]
observed_value: 32.1
//
molecule: Cc1cnc(CN2CCC(n3cnc(-c4ccc(F)cc4)c3-c3ccnc(N)n3)C2)c(F)c1 (stereo not drawn) [Example 31]
observed_value: 47.6
//
molecule: Nc1nccc(-c2c(-c3ccc(F)cc3)ncn2C2CCN(Cc3ccc(C(F)(F)F)nc3)CC2)n1 [Example 18, trifluoroacetate salt]
observed_value: 80.7
//
molecule: C[C@@H](c1ccon1)N1CCC(n2cnc(-c3ccc(F)cc3)c2-c2ccncn2)CC1 (single isomer, unassigned) [Example 10]
observed_value: 64.6
//
molecule: Nc1nccc(-c2c(-c3ccc(F)cc3)ncn2C2CCN(Cc3ccnc(C4CC4)n3)CC2)n1 [Example 28, trifluoroacetate salt]
observed_value: 54.9
//
molecule: Nc1nccc(-c2c(-c3ccccc3)ncn2C2CCN(Cc3ccon3)CC2)n1 [Example 13, hydrochloride salt]
observed_value: 8.22
//
molecule: Fc1ccc(-c2ncn(C3CCN(Cc4ccon4)C3)c2-c2ccncn2)cc1 (stereo not drawn) [Example 8]
observed_value: 211
//
molecule: Cn1nccc1CN1CCC(n2cnc(-c3ccc(F)cc3)c2-c2ccnc(N)n2)CC1 [Example 20, trifluoroacetate salt]
observed_value: 42.8
//
molecule: Fc1ccc(-c2ncn(C3CCN(Cc4cnc5ccnn5c4)C3)c2-c2ccncn2)cc1 (stereo not drawn) [Example 40, trifluoroacetate salt]
observed_value: 178
//
molecule: CCc1csc(CN2CCC(n3cnc(-c4ccc(F)cc4)c3-c3ccnc(N)n3)CC2)n1 [Example 24, trifluoroacetate salt]
observed_value: 83.7
//
molecule: COCCc1ncc(CN2CCC(n3cnc(-c4ccc(F)cc4)c3-c3ccncn3)C2)cn1 (stereo not drawn) [Example 42, trifluoroacetate salt]
observed_value: 679
//
molecule: Cc1ncc(CN2CCC(n3cnc(-c4ccc(F)cc4)c3-c3ccnc(N)n3)CC2)cn1 [Example 27, trifluoroacetate salt]
observed_value: 17.6
//
molecule: Nc1nccc(-c2c(-c3ccc(F)cc3)ncn2C2CCN(Cc3ccnnc3)CC2)n1 [Example 23, trifluoroacetate salt]
observed_value: 8.51
//
molecule: CNc1nccc(-c2c(-c3ccc(F)cc3)ncn2C2CCN(C(C)c3ccon3)CC2)n1 (stereo not drawn) [Example 2]
observed_value: 16.7
//
molecule: Cc1cc(CN2CCC(n3cnc(-c4ccc(F)cc4)c3-c3ccncn3)CC2)no1 [Example 29]
observed_value: 38.8
//
molecule: Nc1nccc(-c2c(-c3ccc(F)cc3)ncn2C2CCN(Cc3ccnc4cccnc34)C2)n1 (stereo not drawn) [Example 38]
observed_value: 55.8
//
molecule: Cc1cccc(CN2CCC(n3cnc(-c4ccc(F)cc4)c3-c3ccnc(N)n3)C2)n1 (stereo not drawn) [Example 30]
observed_value: 91.6
//
molecule: Nc1nccc(-c2c(-c3ccc(F)cc3)ncn2C2CCN(Cc3cncc4ccccc34)C2)n1 (stereo not drawn) [Example 36]
observed_value: 56.3
//
molecule: COc1ccc(CN2CCC(n3cnc(-c4ccc(F)cc4)c3-c3ccnc(N)n3)CC2)cn1 [Example 22, trifluoroacetate salt]
observed_value: 83.6
//
molecule: Fc1ccc(-c2ncn(C3CCN(Cc4cn5ccccc5n4)C3)c2-c2ccncn2)cc1 (stereo not drawn) [Example 39, trifluoroacetate salt]
observed_value: 211
//
molecule: Cc1ncccc1CN1CCC(n2cnc(-c3ccc(F)cc3)c2-c2ccnc(N)n2)C1 (stereo not drawn) [Example 32]
observed_value: 61.1
//
molecule: C[C@H](c1ccon1)N1CCC(n2cnc(-c3ccc(F)cc3)c2-c2ccncn2)CC1 (single isomer, unassigned) [Example 9]
observed_value: 281
